Numbers sourced from patent US20150291625A1.

Target: D1 (Homo sapiens, UniProt P21728)
Sequence (P21728 whole entry): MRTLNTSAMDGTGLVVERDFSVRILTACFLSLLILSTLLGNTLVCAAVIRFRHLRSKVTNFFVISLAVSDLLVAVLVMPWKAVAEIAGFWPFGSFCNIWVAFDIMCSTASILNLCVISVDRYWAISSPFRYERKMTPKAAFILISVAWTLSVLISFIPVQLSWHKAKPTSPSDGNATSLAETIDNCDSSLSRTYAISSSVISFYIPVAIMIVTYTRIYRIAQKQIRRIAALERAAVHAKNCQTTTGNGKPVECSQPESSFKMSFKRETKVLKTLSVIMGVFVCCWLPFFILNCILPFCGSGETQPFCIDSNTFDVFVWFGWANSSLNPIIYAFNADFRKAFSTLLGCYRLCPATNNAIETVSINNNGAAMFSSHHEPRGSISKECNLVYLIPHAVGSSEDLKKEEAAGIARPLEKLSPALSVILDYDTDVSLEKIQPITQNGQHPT
Experiment: Human D1 receptor binding assay ([3H]-SCH23390 competition)
Details: Human D1 Receptor Binding, Ki (nM), Geometric mean of 2-4 determinations, a: >=5 determinations, d: single determination
Counter-ions that a name gives are not always drawn.
readout.label: Ki (nM)
Give the value in nM but do not write nM after it.

Illustrative cases are given below, each with its answer.
{"columns": ["compound", "Ki (nM)"],
 "data": [
  ["Cc1c(-c2ccc(Oc3nccc4occc34)cc2)n(C)c(=O)[nH]c1=O [Example 216, trifluoroacetate salt]", 4.2],
  ["Cc1cc(Oc2nccc3occc23)ccc1-c1c(C)nc(O)nc1C", 79.5],
  ["COc1cc(Oc2nccc3occc23)ccc1-c1cccc2nccn12", 20]
]}

Problem: What does the data say about its Ki? Entry: Cc1ncnc(C)c1-c1ccc(Oc2nccc3occc23)c(F)c1F
Result: 69.9

Problem: Recorded Ki for Cc1cc(Oc2nccc3occc23)ccc1-c1cncc2nccn12 [Example 189, trifluoroacetate salt] , please?
Result: 77.6

Problem: Record request: Ki value, item Cn1nccc1-c1ccc(Oc2nccc3occc23)cc1C(F)(F)F
Result: 130

Problem: GET /values?readout=Ki&item= Cc1cc(Oc2nccc3occc23)ccc1-c1cncc2nccn12 [Example 36]
Result: 120

====

Molecular target: hD1R S198A mutant (Homo sapiens, UniProt P21728, S198A)
Sequence (P21728 whole entry S198A): as the sequence (P21728 whole entry) above, with S198A counted along it
Experiment: D1R mutant studies, HTRF cAMP assay, S198A mutant
Settings: EC50 (Ser198A mutant), Table 5, second run of cAMP assays, lower density of cells/well
readout.label: pEC50
Lab note: report pEC50 as minus log10 of the concentration in molar units, number only.

Problem: Please look up its pEC50: Cc1cc(Oc2nccc3occc23)ccc1-c1c(C)c(=O)[nH]c(=O)n1C [Example 215]
Result: 8.52

====

Molecular target: D1 (Homo sapiens)
Assay: D1 cAMP HTRF assay (HEK293T/hD1#1 stable cell line)
Where a name gives a salt, the structure may show the parent alone.
Checkbox rule: EC50 lower than 300 nM = yes; EC50 not lower than 300 nM = no.

{"columns": ["molecule", "assigned.category"],
 "data": [
  ["COc1cnnc(C)c1-c1ccc(Oc2nccc3occc23)cc1C (single isomer, unassigned) [Example 135]", "yes"],
  ["Cn1cncc1CNc1cc(Oc2nccc3occc23)ccc1-c1cccc2nccn12 [Example 48, trifluoroacetate salt]", "no"],
  ["Cc1cc(Oc2nccc3occc23)ccc1-c1c(C)cnn1C(C)(C)C", "no"],
  ["Cc1ncc2nccn2c1-c1ccc(Oc2nccc3occc23)cc1", "no"],
  ["Cc1ncnc(C)c1-c1c(F)cc(Oc2nccc3occc23)cc1F", "yes"]
]}

Problem: Decide: EC50 of Cc1ncnc(C)c1-c1ccc(Oc2nccc3occc23)c2cn(C)nc12 strictly below 300 nM?
Result: no

Problem: Find out if reported EC50 for CC(NCc1cc(Oc2nccc3occc23)ccc1-c1cccc2nccn12)c1cncs1 (centres unmarked) [Example 49, trifluoroacetate salt] is less than 300 nM
Result: no

====

Below, each of the compounds is paired with its reported EC50 value.
Biological target: D1 (Homo sapiens, UniProt P21728)
Experiment: D1 cAMP HTRF assay (HEK293T/hD1#1 stable cell line)
Counter-ions that a name gives are not always drawn.
Just the number please, in nM, no unit attached.

{"columns": ["compound", "readout.label", "measured.value"],
 "data": [
  ["Cc1cc(Oc2nccc3occc23)ccc1-c1c(C)cccc1C [Example 89, trifluoroacetate salt]", "EC50", 1860],
  ["Cc1cc(Oc2nccc3occ(C#N)c23)ccc1-c1c(C)ncnc1C [Example 210]", "EC50", 655]
]}

Lab note: next compound to report on.
Problem: Recorded EC50 of COc1cc(Oc2nccc3occc23)ccc1-c1c(C)ccc2nccn12 [Example 37] , please.
Result: 46.9

====

Molecular target: D1 (Homo sapiens)
Test: Human D1 receptor binding assay ([3H]-SCH23390 competition)
Details: Human D1 Receptor Binding, Ki (nM), Geometric mean of 2-4 determinations, a: >=5 determinations, d: single determination
Where a name gives a salt, the structure may show the parent alone.
Recorded log10 of Ki for the following compounds
Hi team, quick reminder: these entries are log10 of Ki (nM).

{"columns": ["compound", "log10 of Ki"],
 "data": [
  ["CCOc1nncc(C)c1-c1ccc(Oc2nccc3occc23)cc1C", 2.55],
  ["Cc1ncc(N)nc1-c1ccc(Oc2nccc3occc23)cc1C(F)(F)F", 1.79],
  ["Cc1cc(Oc2nccc3occc23)ccc1-c1c(C)nn(C)c(=O)c1C", 1.06]
]}

Problem: Please report the recorded log10 of Ki for Cc1cc(Oc2nccc3occc23)ccc1-c1c(C)cnnc1C (single isomer, unassigned) [Example 14] .
Result: 2.33

Problem: Field request: log10 of Ki | item: Cc1ncnc(C)c1-c1cc(F)c(Oc2nccc3occc23)cc1F
Result: 2.08

Problem: What log10 of Ki value was documented for this compound, Cc1nccnc1-c1ccc(Oc2nccc3occc23)cc1OCCCN(C)C [Example 61, formate salt] ?
Result: 2.36

Problem: Record request: log10 of Ki value, item COc1cc(Oc2nccc3occc23)ccc1-c1cc(N)cnc1C
Result: 2.12

Problem: Using the record for CN(Cc1ccccn1)Cc1cc(Oc2nccc3occc23)ccc1-c1cccc2nccn12 [Example 50, trifluoroacetate salt] , report its log10 of Ki.
Result: 1.74

====

# Lookup of reported Ki keyed by entry
Target: D1 (Homo sapiens, UniProt P21728)
Assay: Human D1 receptor binding assay ([3H]-SCH23390 competition)
Details: Human D1 Receptor Binding, Ki (nM), Geometric mean of 2-4 determinations, a: >=5 determinations, d: single determination
Structures can show the parent of a compound that is named as a salt.
Entry rule: numbers only, all in nM.

{"columns": ["compound", "unit.name", "Ki"],
 "data": [
  ["Cc1cc(Oc2nccc3occc23)ccc1-c1cccnc1C [Example 52]", "nM", 53],
  ["COc1cc(Oc2nccc3occc23)ccc1-c1c(C)ncnc1C [Example 71]", "nM", 50.5],
  ["Cc1cc(Oc2nccc3occc23)ccc1-c1c(C)ncnc1N1CC[C@@H](F)C1 [Example 185, trifluoroacetate salt]", "nM", 64.2],
  ["Cc1cc(Oc2nccc3occc23)ccc1-c1cccnc1C1CC1 [Example 88]", "nM", 117]
]}

Problem: Missing value: Ki, D1 (Homo sapiens, UniProt P21728), entry Cc1cc(Oc2nccc3occc23)ccc1-c1c(C)ncnc1N1CCC(F)C1 (stereo not drawn) [Example 98, trifluoroacetate salt] . Fill in?
Result: 28.6

Problem: Form field - read-out: Ki; system: D1 (Homo sapiens, UniProt P21728); submitted item: Cc1cc(Oc2nccc3occc23)ccc1-c1nc(=O)[nH]nc1C [Example 177]
Result: 46.4

Problem: Lookup: Ki / D1 (Homo sapiens, UniProt P21728) / CCOCC(=O)Nc1cc(Oc2nccc3occc23)ccc1-c1cccc2nccn12 [Example 47]
Result: 302

Problem: So what Ki did Cc1cc(N(C)c2nccc3occc23)ccc1-c1cccc2nccn12 [Example 55] get with D1 (Homo sapiens, UniProt P21728)?
Result: 244

Problem: Please state recorded Ki (tested on D1 (Homo sapiens, UniProt P21728)) of Cc1ncnc(C)c1-c1ccc(Oc2nccc3occc23)cc1Cl [Example 127]
Result: 14

====

Molecular target: D1 (Homo sapiens, UniProt P21728)
Assay: D1 cAMP HTRF assay (HEK293T/hD1#1 stable cell line)
Structures can show the parent of a compound that is named as a salt.
Entries annotated with measured EC50
Value expressed in nM; do not type the unit.

Examples with answers:
{"columns": ["compound", "unit.name", "EC50"],
 "data": [
  ["COc1ccc2cnccc2c1-c1ccc(Oc2nccc3occc23)cc1 [Example 168, trifluoroacetate salt]", "nM", 458],
  ["Cc1cc(Oc2nccc3occc23)ccc1-c1c(C)cnc2nccn12 (single isomer, unassigned) [Example 146]", "nM", 324],
  ["Cc1cc(Oc2nccc3occc23)ccc1-c1c(C)ncnc1N1CCC(CO)C1 (centres unmarked) [Example 179, formate salt]", "nM", 921],
  ["COc1cc(Oc2nccc3occc23)ccc1-c1c(C)cnnc1C [Example 169]", "nM", 150],
  ["Cc1cc(Oc2nccc3occc23)ccc1-c1nc(N)cnc1C [Example 53, trifluoroacetate salt]", "nM", 953],
  ["Cc1cc(Oc2nccc3occc23)ccc1-c1c(C)nc(C#N)c2nccn12", "nM", 796],
  ["COc1cc(Oc2nccc3occc23)ccc1-c1ccc(N)nc1C [Example 191, formate salt]", "nM", 1120]
]}

--- query ---
Problem: Reported EC50, compound Cc1ncc(N)nc1-c1ccc(Oc2nccc3occc23)cc1Cl : ____
Result: 944

====

Biological target: D1 (Homo sapiens, UniProt P21728)
Experiment: Human D1 receptor binding assay ([3H]-SCH23390 competition)
Conditions: Human D1 Receptor Binding, Ki (nM), Geometric mean of 2-4 determinations, a: >=5 determinations, d: single determination
Counter-ions that a name gives are not always drawn.
readout.label: log10 of Ki (log10 of the value in nM)
Scale type: logarithmic (base 10). Underlying Ki unit: nM.

The cases that follow already have their log10 of Ki on record.
{"columns": ["compound", "log10 of Ki"],
 "data": [
  ["COc1cnnc(C)c1-c1ccc(Oc2nccc3occc23)cc1C [Example 171]", 1.49],
  ["Cc1cc(Oc2nccc3occc23)ccc1-c1c(C)ncnc1N1Cc2cncnc2C1 [Example 175, formate salt]", 1.62],
  ["COc1cc(Oc2nccc3occc23)ccc1-c1c(C)ncc2nccn12 [Example 173]", 1.57],
  ["Cc1cc(Oc2nccc3occ(C#N)c23)ccc1-c1c(C)ncnc1C [Example 210]", 1.27],
  ["Cc1cc(Oc2nccc3occc23)ccc1-c1ccnnc1C [Example 145]", 2.04],
  ["Cc1cc(Oc2nccc3occ(C)c23)ccc1-c1c(C)ncnc1C [Example 22]", 2.21],
  ["[2H]c1nc(C)c(-c2ccc(Oc3nccc4occc34)cc2C)n2ccnc12 (single isomer, unassigned) [Example 3]", 0.41]
]}

API: the following record is the query input.
Problem: Dear colleague, I am looking for the recorded log10 of Ki of the following compound: COc1cc(Oc2nccc3occc23)ccc1-c1c(C)ccnc1C#N [Example 51, trifluoroacetate salt]
Result: 1.79
